Cited source: patent US20160193206A1

System: MOLM-13 cell line
Experiment: MOLM-13 cell proliferation assay (alamarBlue)
Format: cell-based
Conditions: Homo sapiens, inhibition of proliferation of MOLM-13 cells (acute myeloid leukaemia), 96 hours incubation
measurement label: IC50

In [3]: df
Out[3]:
                                   compound  measured_result
0  C[C@@H]1C(=O)N(C)c2ccc(Nc3ccc(C(=O)NC4CN(C)C4)cc3)nc2N1C1CCOCC1           576 nM
1  C[C@@H]1C(=O)N(C)c2ccc(Nc3ccc(S(=O)(=O)NCCN4CCN(C)CC4)cc3)nc2N1C1CCOCC1           358 nM
2  COc1cc(C(=O)NC2CCC(O)CC2)ccc1Nc1ccc2c(n1)N(Cc1ccccc1)[C@H](C)C(=O)N2C (stereo partly shown)           282 nM
3  C[C@@H]1C(=O)N(C)c2ccc(Nc3ccc(C(=O)NCCN4CCN(C)CC4)cc3)nc2N1C1CCOCC1           507 nM

* * *

The following compounds are shown together with reported IC50 values.
Target: BRD4 bromo domain 1 [BRD4(1)] (Homo sapiens, UniProt O60885)
Construct: N-terminally His6-tagged BRD4(1) (amino acids 67-152)
Assay: BRD4(1)/acetylated peptide H4 binding assay (TR-FRET)
Settings: inhibition of interaction between His6-tagged BRD4(1) (amino acids 67-152) and acetylated histone H4 peptide
Excerpt: Protein-Protein Interaction Assay: BRD4/Acetylated Peptide H4 Binding Assay 1. Assay Description for BRD4 Bromo Domain 1 [BRD4(1)] To assess the BRD4(1) binding strength of the substances described in this application, the ability thereof to inhibit the interaction between BRD4(1) and acetylated histone H4 in a dose-dependent manner was quantified. […]
measurement label: IC50 (nM)

                                    compound  measured_result
 0  COc1cc(C(=O)N[C@H]2CC[C@H](N3CCN(CC4CC4)CC3)CC2)ccc1Nc1ccc2c(n1)N(C1CCCCC1)[C@H](C)C(=O)N2C              239
 1  COc1cc(C(=O)NC2CCC(O)CC2)ccc1Nc1ccc2c(n1)N(Cc1ccccc1)[C@H](C)C(=O)N2C (stereo partly drawn)              120
 2  COc1cc(C(=O)N2CCC(F)CC2)ccc1Nc1ccc2c(n1)N(Cc1ccccc1)[C@H](C)C(=O)N2C              218
 3  COc1cc(C(=O)NC2CCC(=O)CC2)ccc1Nc1ccc2c(n1)N(C1CCOCC1)[C@H](C)C(=O)N2C              194
 4  CC(C)N1CCN(C(=O)c2ccc(Nc3ccc4c(n3)N(C3CCCCC3)[C@H](C)C(=O)N4C)cc2)CC1              241
 5  COc1cc(C(=O)NC2CCN(C(C)=O)CC2)ccc1Nc1ccc2c(n1)N(C1CCCCCC1)[C@H](C)C(=O)N2C              339
 6  C[C@@H]1C(=O)N(C)c2ccc(Nc3ccc(C(=O)N[C@H]4CC[C@H](N5CCN(CC6CC6)CC5)CC4)cc3)nc2N1C1CCCCCC1              368
 7  COc1cc(C(=O)NC2CCC(N3CCC(F)(F)CC3)CC2)ccc1Nc1ccc2c(n1)N(C1CCOCC1)[C@H](C)C(=O)N2C (stereo partly drawn)              187
 8  COc1cc(C(=O)N2CC3(CCS3(=O)=O)C2)ccc1Nc1ccc2c(n1)N(C1CCCCC1)[C@H](C)C(=O)N2C              300
 9  COc1cc(C(=O)NC2CN(C)C2)ccc1Nc1ccc2c(n1)N(C1CCOCC1)[C@H](C)C(=O)N2C              215
10  C[C@@H]1C(=O)N(C)c2ccc(Nc3ccc(S(=O)(=O)N4CCN(C)CC4)cc3F)nc2N1C1CCOCC1              106
11  COc1cc(C(=O)NC2CN(C)C2)ccc1Nc1ccc2c(n1)N(C1CCCCC1)[C@H](C)C(=O)N2C              131
12  C[C@@H]1C(=O)N(C)c2ccc(Nc3ccc(C(=O)NC4CCC(N5CCC(F)(F)CC5)CC4)cc3)nc2N1C1CCOCC1 (stereo partly drawn)              166
13  C[C@@H]1C(=O)N(C)c2ccc(Nc3ccc(S(=O)(=O)N4CCN(C)CC4)cc3)nc2N1C1CCOCC1              154
14  COc1cc(C(=O)NCCN2CCN(C)CC2)ccc1Nc1ccc2c(n1)N(Cc1ccccc1)[C@H](C)C(=O)N2C               40
